molecular target: HLA-A*02:01 (Homo sapiens, UniProt P04439, D140Y/D185E/D98H/E176V/E277Q/G131W/G231S/I119V/I121R/I166T/I218V/L300P/L318F/N151K/N90K/P208A/P217A/Q86G/Q94H/R138H/R169H/T345S); assay: MHC binding assay (UV-ligand exchange, beta2m ELISA); conditions: binding to HLA-A*02:01, β2m ELISA
value.kind: Peptide exchange (MHC class I binding score, peptide exchange yield)

For orientation, consider the following solved cases.
{"columns": ["substance", "reading"],
 "data": [
  ["75 (ALLDGALQL; listed as Homo sapiens) [compound 75]", "+++ (≥50 = +++)"],
  ["264 (TLHDQVHLL; listed as Homo sapiens) [compound 264]", "++ (≥20% = ++)"],
  ["221 (IMLNSVEEI; listed as Homo sapiens) [compound 221]", "++ (≥20% = ++)"],
  ["167 (LVVDEGSLVSV; listed as Homo sapiens) [compound 167]", "+++ (≥50 = +++)"],
  ["153 (KLVELEHTL; listed as Homo sapiens) [compound 153]", "+++ (≥50 = +++)"]
]}

Looking for the measured Peptide exchange (MHC class I binding score, peptide exchange yield) of 150 (VLLDMVHSL; listed as Homo sapiens) [compound 150] , can you help?
+++ (≥50 = +++)

Same thing, different substance: 142 (LLDAAHASI; listed as Homo sapiens) [compound 142]
++ (≥20% = ++)

Same thing, different substance: 226 (SLAGNLQEL; listed as Homo sapiens) [compound 226]
+++ (≥50 = +++)

Same thing, different substance: 103 (YLADTVQKL; listed as Homo sapiens) [compound 103]
++ (≥20% = ++)

Same thing, different substance: 277 (KLQEELNKV; listed as Homo sapiens) [compound 277]
+++ (≥50 = +++)

Same thing, different substance: 179 (TLGEIIKGV; listed as Homo sapiens) [compound 179]
+++ (≥50 = +++)

Same thing, different substance: 225 (FLPQPVPLSV; listed as Homo sapiens) [compound 225]
+++ (≥50 = +++)

Same thing, different substance: 283 (ALSELLQQV; listed as Homo sapiens) [compound 283]
+++ (≥50 = +++)

Same thing, different substance: 102 (GLYPVTLVGV; listed as Homo sapiens) [compound 102]
+++ (≥50 = +++)

Same thing, different substance: 122 (SIIDTELKV; listed as Homo sapiens) [compound 122]
+++ (≥50 = +++)

Same thing, different substance: 99 (TLFGIQLTEA; listed as Homo sapiens) [compound 99]
+++ (≥50 = +++)

Same thing, different substance: 115 (ILHGEVNKV; listed as Homo sapiens) [compound 115]
++ (≥20% = ++)

Same thing, different substance: 270 (TLLTFFHEL; listed as Homo sapiens) [compound 270]
+++ (≥50 = +++)

* * *

molecular target: HLA-A*02:01 (Homo sapiens, UniProt P04439, D140Y/D185E/D98H/E176V/E277Q/G131W/G231S/I119V/I121R/I166T/I218V/L300P/L318F/N151K/N90K/P208A/P217A/Q86G/Q94H/R138H/R169H/T345S); test: MHC binding assay (UV-ligand exchange, beta2m ELISA); settings: binding to HLA-A*02:01, β2m ELISA
value.kind: Peptide exchange (MHC class I binding score, peptide exchange yield)

For orientation, consider the following solved cases.
{"columns": ["substance", "reading"],
 "data": [
  ["68 (QLMNLIRSV; listed as Homo sapiens) [compound 68]", "+++ (≥50 = +++)"],
  ["267 (YLLDMPLWYL; listed as Homo sapiens) [compound 267]", "+++ (≥50 = +++)"],
  ["145 (ALEEKLENV; listed as Homo sapiens) [compound 145]", "+++ (≥50 = +++)"],
  ["229 (YLYELEHAL; listed as Homo sapiens) [compound 229]", "++ (≥20% = ++)"],
  ["44 (AVFNLVHVV; listed as Homo sapiens) [compound 44]", "+++ (≥50 = +++)"]
]}

Looking for the measured Peptide exchange (MHC class I binding score, peptide exchange yield) of 231 (LLDDIFIRL; listed as Homo sapiens) [compound 231] , can you help?
+++ (≥50 = +++)

Same thing, different substance: 255 (FLMKNSDLYGA; listed as Homo sapiens) [compound 255]
+++ (≥50 = +++)

Same thing, different substance: 235 (SLLNQPKAV; listed as Homo sapiens) [compound 235]
++ (≥20% = ++)

Same thing, different substance: 151 (DISKRIQSL; listed as Homo sapiens) [compound 151]
++ (≥20% = ++)

Data credit: patent US10081665B2
